- EXPERIMENTAL_PROTOCOL: FP purification and fluorescence characterization in vitro (spectra, extinction coefficient, quantum yield)
- Format: physicochemical
ASSAY_READOUT: quantum yield (QY)
Don't forget the unit after the value.

R8-9: evolved APCα FP, SEQ ID NO: 10, with BV (protein, biliverdin chromophore; smRUFP Variant Polypeptide) MKTCEQRVNIATLLSENKKKIVDKASQDLWRRRPDLIAPGGIAFSQRDRALCLRDYGWYLHLITFCLLAGDKGPIESIGLIGIREMYNSLGVPVPDMMESIRCLKEASLSLLDEEDAKETAPYFDYIIKAMS    12%

Moving on to the next molecule.
Incoming: Item under review: R8-8: evolved APCα FP, SEQ ID NO: 9, with BV (protein, biliverdin chromophore; smRUFP Variant Polypeptide) MKTCEQRVKIATLLSENKKKIVDKASQDLWRRHPDLIAPGGIAFSQRDRALCLRDYGWYLHLITFCLLAGDKGPIESIGLIGIREMYNSLGVPVPAMMESIRCLKEASLSLLDEEDANETAPYFDYIIKAMS . Reported quantum yield (QY)?
Outgoing: 13%

Source: patent US10501502B2
